- Tested on: JIMT-1
- experimentNotes: Cell viability assay (CCK-8), JIMT-1
- Format: cell-based
- runConditions: Homo sapiens, JIMT-1, 72 h; payloads, 3 days, HER2+; read-out: IC50 JIMT-1
propertyLabel: pIC50
By convention, pIC50 is the negative base-10 log of a molar concentration.

Fill in the blank: the reported pIC50 of `CC[C@@]1(O)C(=O)OCc2c1cc1n(c2=O)Cc2c-1nc1cc(F)c(C)c3c1c2[C@@H](NC(=O)C1(O)CCC1)CC3` is ____.
6.71
